Data origin, for the record: ChEMBL document CHEMBL5291721

Molecular target: Type-1 angiotensin II receptor (Homo sapiens, UniProt P30556); note: assay procedure not described here
Sequence (P30556 whole entry): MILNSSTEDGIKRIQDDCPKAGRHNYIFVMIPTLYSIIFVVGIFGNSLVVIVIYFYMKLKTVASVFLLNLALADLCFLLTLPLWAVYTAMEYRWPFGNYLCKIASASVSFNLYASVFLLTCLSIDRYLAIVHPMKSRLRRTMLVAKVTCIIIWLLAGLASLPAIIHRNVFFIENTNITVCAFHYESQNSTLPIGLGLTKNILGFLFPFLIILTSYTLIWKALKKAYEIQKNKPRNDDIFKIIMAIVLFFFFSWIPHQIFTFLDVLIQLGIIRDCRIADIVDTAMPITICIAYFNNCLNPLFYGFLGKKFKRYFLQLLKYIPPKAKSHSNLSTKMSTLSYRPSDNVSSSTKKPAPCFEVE
# AC50 listing for each entry below

Q: So what does the record say about AC50 for CC[C@@H](CO)NC(=O)[C@@H]1C=C2c3cccc4[nH]cc(c34)C[C@H]2N(C)C1 [METHYLERGONOVINE] ?
A: > 30 µM

Q: Return reported AC50; argument: NC(=O)c1ncn([C@@H]2O[C@H](CO)[C@@H](O)[C@H]2O)n1 [RIBAVIRIN]
A: > 10 µM

Q: Which AC50 is reported for this compound? C[C@]12CC[C@H](O)CC1=CC[C@@H]1[C@@H]2CC[C@]2(C)C(c3cccnc3)=CC[C@@H]12 [ABIRATERONE]
A: > 30 µM

Q: Which AC50 value is on record for CC(=O)Nc1c(I)c(C(=O)N[C@H]2C(O)O[C@H](CO)[C@@H](O)[C@@H]2O)c(I)c(N(C)C(C)=O)c1I (stereo not given in full) [METRIZAMIDE] ?
A: > 10 µM

Q: Form field: reported AC50 of CCC(=O)OCC(=O)[C@@]1(OC(=O)CC)[C@@H](C)C[C@H]2[C@@H]3CCC4=CC(=O)C=C[C@]4(C)[C@@]3(F)[C@@H](O)C[C@@]21C [BETAMETHASONE DIPROPIONATE]
A: > 30 µM

Q: // query AC50 value for entry CC(=O)OCC(=O)[C@@]1(O)CC[C@H]2[C@@H]3CCC4=CC(=O)CC[C@]4(C)C3=CC[C@@]21C [ANECORTAVE ACETATE]
A: > 10 µM

Q: // AC50 lookup, key: `CC(=N)N1CC[C@H](SC2=C(C(=O)O)N3C(=O)[C@H]([C@@H](C)O)[C@H]3C2)C1`
A: > 300 µM

----------
target: D(1A) dopamine receptor (Homo sapiens, UniProt P21728); type: functional, cell-based; note: assay procedure not described here
Sequence (P21728 whole entry): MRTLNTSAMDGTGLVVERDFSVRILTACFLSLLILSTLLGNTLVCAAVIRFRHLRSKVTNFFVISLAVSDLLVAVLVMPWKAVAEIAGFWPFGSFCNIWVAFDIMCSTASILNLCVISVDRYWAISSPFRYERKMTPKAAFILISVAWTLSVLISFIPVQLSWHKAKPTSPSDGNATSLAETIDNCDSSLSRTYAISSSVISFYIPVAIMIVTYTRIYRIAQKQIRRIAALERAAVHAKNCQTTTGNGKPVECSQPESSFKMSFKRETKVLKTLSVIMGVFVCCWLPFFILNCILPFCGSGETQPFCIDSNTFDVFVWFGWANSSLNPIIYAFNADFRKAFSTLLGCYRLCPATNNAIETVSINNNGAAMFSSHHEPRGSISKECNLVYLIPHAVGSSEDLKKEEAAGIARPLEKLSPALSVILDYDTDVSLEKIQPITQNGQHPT
MEASURED_ATTRIBUTE: AC50

Consider the worked cases shown below.
{"COMPOUND": "CC1(C)O[C@@H]2C[C@H]3[C@@H]4C[C@H](F)C5=CC(=O)C=C[C@]5(C)[C@H]4[C@@H](O)C[C@]3(C)[C@]2(C(=O)CO)O1 [FLUNISOLIDE]", "AC50": "> 30 µM"}
{"COMPOUND": "CC(NCCc1ccc(O)cc1)C(O)c1ccc(O)cc1 (stereo not given)", "AC50": "> 10 µM"}
{"COMPOUND": "CC(=O)OCC(CCn1cnc2cnc(N)nc21)COC(C)=O", "AC50": "> 10 µM"}
{"COMPOUND": "CNC[C@H](O)c1cccc(O)c1", "AC50": "3.13 µM"}
{"COMPOUND": "C[n+]1ccccc1/C=N/O", "AC50": "> 30 µM"}
{"COMPOUND": "CC(C)=CCOc1ccc(/C=C/C(=O)c2ccc(OCC=C(C)C)cc2OCC(=O)O)cc1", "AC50": "> 30 µM"}
{"COMPOUND": "O=c1oc2ccccc2c(O)c1Cc1c(O)c2ccccc2oc1=O", "AC50": "> 10 µM"}
{"COMPOUND": "CNCCCC1c2ccccc2C=Cc2ccccc21", "AC50": "> 10 µM"}
{"COMPOUND": "C[C@]12CC[C@H](O)CC1=CC[C@@H]1[C@@H]2CC[C@]2(C)C(c3cccnc3)=CC[C@@H]12", "AC50": "> 10 µM"}
{"COMPOUND": "CC(=O)Oc1ccccc1C(=O)Nc1ncc([N+](=O)[O-])s1 [NITAZOXANIDE]", "AC50": "> 30 µM"}

Q: Look up AC50: `CC(=O)O[C@H]1C[C@@H]2CC[C@@H]3[C@H](CC[C@@]4(C)[C@H]3C[C@H]([N+]3(C)CCCCC3)[C@@H]4OC(C)=O)[C@@]2(C)C[C@@H]1[N+]1(C)CCCCC1`
A: > 10 µM

Q: For the compound `O=C(O)c1ccccc1OP(=O)(O)O` , what AC50 is on record?
A: > 30 µM

Q: Need AC50, item `CC1(C)S[C@@H]2[C@H](NC(=O)[C@H](N)c3ccc(O)cc3)C(=O)N2[C@H]1C(=O)O`
A: > 30 µM

Q: Data request, read-out AC50, for `N#C[C@@H]1CCCN1C(=O)CNC12CC3CC(CC(O)(C3)C1)C2`
A: > 30 µM

Q: Would you mind telling me what AC50 value was observed for `C=C(C)[C@@H]1CCC(C)=C[C@H]1c1c(O)cc(CCCCC)cc1O` ?
A: > 30 µM

Q: Fill blank: measured AC50 of the compound Nc1nc2c(c(=O)[nH]1)N(C=O)C(CNc1ccc(C(=O)N[C@@H](CCC(=O)O)C(=O)O)cc1)CN2 (stereo not given in full) is ____.
A: > 30 µM

Q: What does the data say about its AC50? Entry: `Cc1ccc(=O)n(-c2ccccc2)c1`
A: > 30 µM

Q: Suppose we examine the compound `N[C@H](Cc1cc(I)c(Oc2cc(I)c(O)c(I)c2)c(I)c1)C(=O)O` ; what AC50 value has been reported?
A: > 10 µM

Q: Name the recorded AC50 for CCCNC(C)C(=O)Nc1ccccc1C (stereo not given) .
A: > 30 µM

Q: Need AC50 of `COc1cc2c(Nc3ccc(Br)cc3F)ncnc2cc1OCC1CCN(C)CC1` , thanks.
A: > 30 µM

Q: I'd like to know its AC50. The compound in question is CCCCCCOC(=O)CCC(=O)CN [HEXAMINOLEVULINATE]
A: > 30 µM

Q: For `COc1ccc2c(c1)[C@]13CCCC[C@@H]1[C@H](C2)N(C)CC3` , what is its reported AC50?
A: > 10 µM

Q: Quick check: AC50 of `C#Cc1cccc(Nc2ncnc3cc(OCCOC)c(OCCOC)cc23)c1` ?
A: > 30 µM
